Entries and their TGI values follow.
# Test system: HOP-62 NSCLC
# MEASUREMENT NOTES: NCI tumour cell line growth inhibition, 48 h
Give the value in µM but do not write µM after it.

INPUT: Fill in: TGI on HOP-62 NSCLC, entry O=C1CCC2C(O)c3cc4c(cc3C(c3ccc5c(c3)OCO5)N12)OCO4 (stereo not given)
OUTPUT: 63.7

INPUT: For HOP-62 NSCLC, give TGI of the listed compound: FC(F)(F)c1ccc(Nc2nc(-c3c(C(F)(F)F)nc4ccccn34)cs2)cc1
OUTPUT: 9.14

###

# Tested on: SF-539 CNS
# MEASUREMENT NOTES: NCI tumour cell line growth inhibition, 48 h; in the data active means GI50 below about 0.43 µM; inactive means the rest
Can you answer with just one of these options? active, inactive

// known answers, use as guide
COMPOUND	MEASURED TARGET	GROUP LABEL
CC/C=C1/C(=O)C=C[C@@H]1C/C=C\CCCC(=O)OC	SF-539 CNS	inactive
COc1cnc2c(c1)C(=O)c1c-2n(CCCn2ccnc2)c(=O)c2cc(F)ccc12	SF-539 CNS	active
C=C(C)C(=O)O[C@H]1CC(=C)[C@@H]2C[C@H](O)[C@](O)(CCl)[C@@H]2[C@H]2OC(=O)C(=C)[C@@H]21	SF-539 CNS	inactive

INPUT: Query: recorded result category for CC1CCC(NC(=O)N(CCCl)N=O)CC1 (configuration not stated) in this test
OUTPUT: inactive

INPUT: Query: recorded result category for C=C1C(=O)O[C@H]2[C@H]1CC/C(COC(=O)NCc1cn(C)c3ccccc13)=C\CC[C@@]1(C)O[C@@H]21 in this test
OUTPUT: inactive

INPUT: Short answer needed: outcome of this test for COc1ccc(C(=O)OC2C(OC3C(O)COC(O[C@H]4C[C@H]5[C@@H]6CC=C7C[C@@H](O)CC[C@]7(C)[C@H]6CC[C@]5(C)[C@H]4[C@H](C)C(=O)CCC(C)C)C3OC(N)=O)OCC(O)C2O)cc1 (some centres not stated) ?
OUTPUT: active

INPUT: Status in this test for CCC(C)(CC(C)(C)C(=O)NCC(=O)NC(Cc1ccccc1)C(=O)NC(Cc1ccccc1)C(=O)NCC(=O)NC1CC(OC2CC(O)(C(=O)CO)Cc3c(O)c4c(c(O)c32)C(=O)c2c(OC)cccc2C4=O)OC(C)C1O)C(=O)NCC(C)O (configuration not stated) ?
OUTPUT: inactive

###

# Tested on: SK-MEL-2 melanoma
# MEASUREMENT NOTES: NCI tumour cell line growth inhibition, 48 h; in the data active = GI50 below about 0.43 µM; inactive = the rest
Answer with one of the outcomes active, inactive

Known results for compounds:
COMPOUND	GROUP LABEL
CCC(C)(CC(C)(C)C(=O)NCC(=O)NC(Cc1ccccc1)C(=O)NC(Cc1ccccc1)C(=O)NCC(=O)NC1CC(OC2CC(O)(C(=O)CO)Cc3c(O)c4c(c(O)c32)C(=O)c2c(OC)cccc2C4=O)OC(C)C1O)C(=O)NCC(C)O (stereo not drawn)	inactive
CN(C)CCN1C(=O)c2ccccc2N(C)c2ccccc21	inactive
CN(O)c1nc(N(C)O)nc(N2CCOCC2)n1	inactive

INPUT: Write down the call the test reported for this compound. Item: C[C@H]1[C@H](C)CC[C@]2(CO)CC[C@]3(C)C(=CC[C@@H]4[C@@]5(C)CCCNC(C)(C)[C@@H]5CC[C@]43C)[C@H]12
OUTPUT: inactive

INPUT: Which outcome was assigned to COc1ccc(/C(COc2ccc3c(=O)cc(-c4ccccc4)oc3c2)=N\O)cc1 in this test?
OUTPUT: inactive

INPUT: Per the assay record, what outcome was assigned to O=[N+]([O-])O.[Cu+2].[NH-]CC[NH-].[NH-]CC[NH-] ?
OUTPUT: inactive

INPUT: Status in this test for c1ccc2[nH]c(-c3ccc(-c4nccc5c4[nH]c4ccccc45)cc3)nc2c1 ?
OUTPUT: inactive

INPUT: Per the assay record, what outcome was assigned to COc1ccc2nc3cccc([N+](=O)[O-])c3c(NCCCCCC(=O)O)c2c1 ?
OUTPUT: active
